- Tested on: PC-3 prostate
- Test details: NCI-60 one-dose screen, 48 h (100 = growth as untreated, 0 = no growth, -100 = all killed)
- Run parameters: 10 µM unless noted
The panel holds about 83,000 compounds, 20% with a hit somewhere; the sample as a whole holds those more often. Calls of active or inactive are those of the source. Rule for the calls: active = growth percent below 10; inactive = the rest.
Endpoint: growth

compound=O=C(NNC(=O)c1ccc(OCc2nc3ccc(Cl)cc3[nH]2)cc1)Nc1ccc(Cl)c(Cl)c1 obs_value="63.3% (inactive)"
compound="Cc1cc(C(NC(=O)CCCCCNc2cccc3c2C(=O)N(C2CCC(=O)CC2=O)C3=O)c2cccc(N(C)C)c2)c(O)c2ncccc12 (stereo not given)" obs_value="7.35% (active)"
compound=Cc1nn(-c2ccccc2)c2ncn(CC(=O)N/N=C/c3ccccc3O)c(=O)c12 obs_value="43.3% (inactive)"
compound="OC1CCC(Cn2c(C(F)(F)F)cc3c(Cl)ncnc32)CC1 (stereo not given)" obs_value="23.5% (inactive)"
compound=O=C(CSc1nc2sc3c(c2c(=O)n1-c1ccc(Cl)cc1)CCCC3)NNC(=O)c1ccc(Br)cc1 obs_value="71.8% (inactive)"

---

- Test system: LOX IMVI melanoma
- Test details: NCI-60 one-dose screen, 48 h (100 = growth as untreated, 0 = no growth, -100 = all killed)
- Run parameters: 10 µM unless noted
Compounds without any hit were thinned out: in the full panel of roughly 83,000, 20% have a hit. Calls of active or inactive are those of the source. The calls were made as follows: active = growth percent below 10; inactive = the rest.
Endpoint: growth

molecule=CN(C)c1nc(NCCNS(=O)(=O)c2ccc(C(=O)/C=C/c3ccc(F)cc3)cc2)nc(N2CCOCC2)n1 target_under_test="LOX IMVI melanoma" obs_value="-97.6% (active)"
molecule="O=S(=O)(c1nc(-c2ccc(Br)cc2)oc1-c1ccc(Cl)cc1)N1CCCC(O)C1 (centres undefined)" target_under_test="LOX IMVI melanoma" obs_value="4.05% (active)"
molecule=COc1ccc(C(=O)/C=C/c2ccc3c(c2)OCCO3)cc1S(N)(=O)=O target_under_test="LOX IMVI melanoma" obs_value="23.7% (inactive)"
molecule=O=C(N/N=C/c1ccc(Br)o1)c1[nH]c2ccc(Br)cc2c1-c1ccccc1 target_under_test="LOX IMVI melanoma" obs_value="-62.8% (active)"
molecule=O=C1Nc2ccc(F)cc2/C1=C/C(=O)c1cc2ccccc2oc1=O target_under_test="LOX IMVI melanoma" obs_value="80.4% (inactive)"
molecule=COc1ccc(/C=C/c2nc3ccccc3c(=O)n2CC(=O)Nc2ccccc2)cc1 target_under_test="LOX IMVI melanoma" obs_value="26.9% (inactive)"
molecule=COc1ccc2oc(=O)c(-c3csc(N/N=C(\C)c4cc(OC)c(OC)c(OC)c4)n3)cc2c1 target_under_test="LOX IMVI melanoma" obs_value="86.6% (inactive)"
molecule=O=Cc1cncc(-c2ccc3ncnc(N4CCc5cc(F)c(Cl)cc54)c3c2)c1 target_under_test="LOX IMVI melanoma" obs_value="20.8% (inactive)"
molecule=CCCCCCCOc1ccc(S(=O)(=O)Nc2ccc(C)c(F)c2C(=O)O)cc1 target_under_test="LOX IMVI melanoma" obs_value="98.9% (inactive)"

---

Here the recorded growth is given for each entry.
- Tested on: NCI/ADR-RES ovarian
- Test details: NCI-60 one-dose screen, 48 h (100 = growth as untreated, 0 = no growth, -100 = all killed)
- Run parameters: 10 µM unless noted
The panel holds about 83,000 compounds, 20% with a hit somewhere; the sample as a whole holds those more often.
Endpoint: growth (%)

smiles_entry=FC(F)(F)CN1CCN(CCn2c(C(F)(F)F)cc3c(Cl)ncnc32)CC1 obs_value=75.1
smiles_entry=O=C(NNC(=S)NCCc1ccccc1)c1ccc(OCc2nc3ccc(Cl)cc3[nH]2)cc1 obs_value=93.9
smiles_entry=CCCCCCCCCc1ccc(C(=O)Nc2cc(C)ccc2C(=O)OC)cc1 obs_value=109
smiles_entry=CCOc1ccc(-c2cc(-c3cc(C(C)C)c(O)cc3C)nn2-c2ccc(S(N)(=O)=O)cc2)cc1 obs_value=4.14

---

- System: RPMI-8226 leukemia
- Test details: NCI-60 one-dose screen, 48 h (100 = growth as untreated, 0 = no growth, -100 = all killed)
- Run parameters: 10 µM unless noted
The panel holds about 83,000 compounds, 20% with a hit somewhere; the sample as a whole holds those more often.
Here the recorded growth is given for each entry.
Endpoint: growth (%)

compound="CCOC(=O)/C(F)=C/C1CC1C(c1ccccc1)c1ccccc1 (centres undefined)" target_under_test="RPMI-8226 leukemia" unit_annotation=% obs_value=69.5
compound=CC[C@]12C=CCN3CC[C@]4(C(=C(C(=O)OC)C1)Nc1cc(OC)c([C@@H]5[C@H]6O[C@H]6[C@@]6(CC)CC(C(=O)OC)=C7Nc8cc(O)ccc8[C@@]78CCN5[C@@H]68)cc14)[C@@H]32 target_under_test="RPMI-8226 leukemia" unit_annotation=% obs_value=-5.84
compound=COc1ccc(-c2nc3ccc(-c4nnc(SCC(=O)Nc5ccc(/C(C)=N\O)cc5)o4)cc3[nH]2)cc1 target_under_test="RPMI-8226 leukemia" unit_annotation=% obs_value=36.5
compound="COc1c2c(cc3c1C(CCc1ccccc1)N(C)CC3)OCO2 (centres undefined)" target_under_test="RPMI-8226 leukemia" unit_annotation=% obs_value=-15.5
compound="Cc1cc(C(NC(=O)CCCCCNc2cccc3c2C(=O)N(C2CCC(=O)CC2=O)C3=O)c2cccc(N(C)C)c2)c(O)c2ncccc12 (centres undefined)" target_under_test="RPMI-8226 leukemia" unit_annotation=% obs_value=15.6
compound=CN(C)CCCNC(=S)Nc1ccc(/C=C/c2ccc(Cl)cc2)cc1 target_under_test="RPMI-8226 leukemia" unit_annotation=% obs_value=3.25
compound=O=C(Cc1c(-c2ccccc2[N+](=O)[O-])n(-c2ncnc3c2c(-c2ccccc2)c(-c2ccccc2)n3Cc2ccccc2)[nH]c1=O)c1ccc(Cl)c(Cl)c1 target_under_test="RPMI-8226 leukemia" unit_annotation=% obs_value=-3.03
compound=COc1nc(N)ncc1-c1ccc2ncnc(N3CCc4cc(F)c(Cl)cc43)c2c1 target_under_test="RPMI-8226 leukemia" unit_annotation=% obs_value=14
compound=Oc1cncc(-c2ccc3ncnc(N4CCc5cc(F)c(Cl)cc54)c3c2)c1 target_under_test="RPMI-8226 leukemia" unit_annotation=% obs_value=55.2

---

- System: HCC-2998 colon
- Test details: NCI-60 one-dose screen, 48 h (100 = growth as untreated, 0 = no growth, -100 = all killed)
- Run parameters: 10 µM unless noted
- Method: Growth inhibition of the HCC-2998 human tumor cell line is measured as a screen for anti-cancer activity. Cells are grown in 96 well plates and exposed to the test compound for 48 hours. Compounds are tested at a single concentration, which is 10^-5 M for most compounds. The reported endpoint is percent growth (GI% or GIPRCNT), where numbers from 0 - 100% represent growth inhibition, and numbers from -100% - 0 represent cell death. For example, a value of 40 represents 60% growth inhibition. […]
About 83,000 compounds went through this panel and 20% of them were active in at least one assay; those are over-represented in the sample as a whole.
Here the recorded growth is given for each entry.
Endpoint: growth (%)

molecule=Cc1ccc(C(=O)Nc2cc(-c3ccncc3)cc(C(F)(F)F)c2)cc1C#Cc1cnc2cccnn12 target_under_test="HCC-2998 colon" obs_value=63.5
molecule=CC(C)C[C@H](NC(=O)[C@@H]1CCCCCCCCCCC(=O)N[C@@H](CC(=O)N2CCC[C@@H]2C2CCCC2)C(=O)N1)B(O)O target_under_test="HCC-2998 colon" obs_value=-100
molecule=Cn1cc(-c2cc(N)n3nc(-c4c[nH]c5ccc(Cl)cc45)cc3n2)c2cccnc21 target_under_test="HCC-2998 colon" obs_value=-98.5
molecule=COc1cc(CNC(=O)C[C@H](C)CCC=C(C)C)ccc1OCc1cn(-c2ccccc2Cl)nn1 target_under_test="HCC-2998 colon" obs_value=91.9
molecule=COc1cc(CNC(=O)C[C@H](C)CCC=C(C)C)ccc1OCc1cn(-c2ccc(Cl)cc2Cl)nn1 target_under_test="HCC-2998 colon" obs_value=92.5
molecule=Cn1cc(-c2cc(N)n3nc(-c4c[nH]c5ccc(F)cc45)cc3n2)c2cc(Br)cnc21 target_under_test="HCC-2998 colon" obs_value=13.8
molecule=Cn1cc(Nc2ncnc(-c3ccc(N4CCCC4)c(C#N)c3)n2)cn1 target_under_test="HCC-2998 colon" obs_value=68.6
molecule=Nc1cc(-c2c[nH]c3ccc(Cl)cc23)nc2cc(-c3c[nH]c4ccccc34)nn12 target_under_test="HCC-2998 colon" obs_value=-81.2
molecule="CCc1ccc(SC2c3cc(OC)ccc3Oc3nc(N)c(C#N)c(N)c32)cc1 (centres undefined)" target_under_test="HCC-2998 colon" obs_value=-48.3
molecule=CC[C@@]12CC(C(=O)OC)=C3Nc4cc5c(cc4[C@@]34CCN(C[C@H]3O[C@H]31)[C@@H]24)[C@@H]1[C@H](O5)[C@@H](O)[C@@]2(CC)CC(C(=O)OC)=C3Nc4cc(O)ccc4[C@@]34CCN1[C@@H]24 target_under_test="HCC-2998 colon" obs_value=-85.4
molecule=COc1ccc(NC(=O)Nc2nc3ccc([N+](=O)[O-])cc3s2)cc1 target_under_test="HCC-2998 colon" obs_value=19.2
molecule=CS(=O)(=O)Nc1cc(-c2ccc3ncnc(N4CCc5cc(F)c(Cl)cc54)c3c2)cnc1Cl target_under_test="HCC-2998 colon" obs_value=16.5
molecule=COc1ccc2[nH]c(O)c(N=Nc3nc(-c4ccccc4)cs3)c2c1 target_under_test="HCC-2998 colon" obs_value=58.6
molecule="Oc1ccc(F)c(Nc2nc(SCCN3CCOCC3)nc3c2cnn3CC(Cl)c2ccc(Br)cc2)c1 (centres undefined)" target_under_test="HCC-2998 colon" obs_value=15.8
